Structures can show the parent of a compound that is named as a salt.
recorded endpoint: melting point (°C)

a. O=C(Nc1cccc2c1C(=O)c1c-2n[nH]c1C1CCN(C(=O)Oc2ccccc2)CC1)NN1CCOCC1 (as salt: TFA)
b. CN(C)c1ccc(CC(=O)N2CCC(c3[nH]nc4c3C(=O)c3c(NC(=O)NN5CCOCC5)cccc3-4)CC2)cc1 (as salt: TFA)
QUERY: Between a and b , which one shows the larger melting point value? Lab log: write the label of the selected item as the result.
RESULT: a

###

Structures can show the parent of a compound that is named as a salt.
recorded endpoint: melting point (°C)

I. CC(C)N1CCN(c2ccc(-c3[nH]nc4c3C(=O)c3c(NC(=O)NN5CCN(C)CC5)cccc3-4)cc2)CC1 (as salt: TFA) [Example CCXXVI]
II. CN1CCC(C(=O)N2CCC(c3[nH]nc4c3C(=O)c3c(NC(=O)NN5CCOCC5)cccc3-4)CC2)CC1 (as salt: TFA) [Example CCLXXX]
QUERY: Hey, which is lower on measured melting point, I or II ? Indicate your choice by writing its label.
RESULT: II
(II: 148 °C, I: 272 °C)
